Data provenance: paper PMC8185074

systemUnderTest: HDAC2 (Homo sapiens, UniProt Q92769)
Construct: purchased Reaction Biology Corporation (assay run by the CRO)
Sequence (Q92769 whole entry): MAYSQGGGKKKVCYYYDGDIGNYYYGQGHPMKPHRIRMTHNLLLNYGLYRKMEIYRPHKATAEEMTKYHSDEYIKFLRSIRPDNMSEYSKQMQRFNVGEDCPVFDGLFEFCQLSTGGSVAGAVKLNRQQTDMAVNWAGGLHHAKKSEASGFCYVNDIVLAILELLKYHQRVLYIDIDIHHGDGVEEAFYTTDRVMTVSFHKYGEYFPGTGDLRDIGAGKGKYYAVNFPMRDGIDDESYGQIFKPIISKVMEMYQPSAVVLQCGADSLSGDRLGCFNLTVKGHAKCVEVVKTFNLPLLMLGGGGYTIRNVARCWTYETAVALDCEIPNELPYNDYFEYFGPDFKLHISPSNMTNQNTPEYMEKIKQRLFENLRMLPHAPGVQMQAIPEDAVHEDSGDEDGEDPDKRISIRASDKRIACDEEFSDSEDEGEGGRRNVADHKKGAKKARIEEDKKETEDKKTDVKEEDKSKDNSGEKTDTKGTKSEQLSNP
experimentalDetails: HDAC2 inhibition, full IC50 measurement (Reaction Biology; fluorogenic p53 peptide RHKK(Ac)AMC)
Assay type: biochemical
runConditions: Conc. 4.12E-08 M, t1
Peptide text beside a SMILES is read from it.
Can you tell me HDAC2 activity raw data (signal) for the items I'm about to list?
API doc: respond with a numeric literal and nothing else, no unit.

Qu. Would you please give the reported HDAC2 activity raw data (signal) of N=C(N)NCCC[C@@H]1NC(=O)[C@H](Cc2c[nH]c3ccccc23)NC(=O)[C@H](CC(=O)O)NC(=O)[C@@H](CO)NC(=O)[C@H](Cc2c[nH]c3ccccc23)NC(=O)[C@H](CCCCCS)NC(=O)[C@H](CCC(N)=O)NC1=O [des4.1.0, SHA-Trp-dSer-Asp-Trp-Arg-Gln] (HELM PEPTIDE1{D.W.R.Q.[O=C([C@H](CCCCCS)N[*:1])[*:2]].W.[dS]}$PEPTIDE1,PEPTIDE1,1:R1-7:R2$$$V2.0) with HDAC2 (Homo sapiens, UniProt Q92769)?
Ans. 1421192

Qu. Would you please give the reported HDAC2 activity raw data (signal) of CCCC[C@H]1NC(=O)[C@H](Cc2ccccc2)NC(=O)[C@H](CCCCCS)NC(=O)[C@@H](CCCNC(=N)N)NC(=O)[C@H](CC(=O)O)NC(=O)[C@@H](CO)NC(=O)[C@@H](C)NC(=O)[C@H](CCCCN)NC1=O [des4.3.1, SHA-Phe-dNle-Lys-dAla-dSer-Asp-dArg] (HELM PEPTIDE1{D.[dR].[O=C([C@H](CCCCCS)N[*:1])[*:2]].F.[CCCC[C@@H](N[*:1])C(=O)[*:2]].K.[dA].[dS]}$PEPTIDE1,PEPTIDE1,1:R1-8:R2$$$V2.0) with HDAC2 (Homo sapiens, UniProt Q92769)?
Ans. 1002980

Qu. Would you please give the reported HDAC2 activity raw data (signal) of C[C@H](O)[C@H]1NC(=O)[C@H](Cc2c[nH]c3ccccc23)NC(=O)[C@H](CCCCCS)NC(=O)[C@H](CCCCN)NC(=O)[C@@H](CC(=O)O)NC(=O)[C@@H](CCCCN)NC(=O)[C@@H](CO)NC(=O)[C@H](CC(N)=O)NC(=O)[C@H](CC(=O)O)NC1=O [des2.1.0, SHA-Trp-dThr-Asp-Asn-dSer-dLys-dAsp-Lys] (HELM PEPTIDE1{D.N.[dS].[dK].[dD].K.[O=C([C@H](CCCCCS)N[*:1])[*:2]].W.[dT]}$PEPTIDE1,PEPTIDE1,1:R1-9:R2$$$V2.0) with HDAC2 (Homo sapiens, UniProt Q92769)?
Ans. 557731

Qu. Would you please give the reported HDAC2 activity raw data (signal) of CSCC[C@H]1NC(=O)[C@@H](CO)NC(=O)[C@H](CC(N)=O)NC(=O)[C@H](CC(=O)O)NC(=O)[C@@H]([C@H](C)O)NC(=O)[C@H](Cc2c[nH]c3ccccc23)NC(=O)[C@H](CCCCCS)NC(=O)[C@H](CCCCN)NC(=O)[C@@H](CC(=O)O)NC1=O [des2.1.1, SHA-Trp-dThr-Asp-Asn-dSer-dMet-dAsp-Lys] (HELM PEPTIDE1{D.N.[dS].[dM].[dD].K.[O=C([C@H](CCCCCS)N[*:1])[*:2]].W.[dT]}$PEPTIDE1,PEPTIDE1,1:R1-9:R2$$$V2.0) with HDAC2 (Homo sapiens, UniProt Q92769)?
Ans. 374430

###

systemUnderTest: HDAC6 (Homo sapiens, UniProt Q9UBN7)
Construct: purchased Reaction Biology Corporation (assay run by the CRO)
Sequence (Q9UBN7 whole entry): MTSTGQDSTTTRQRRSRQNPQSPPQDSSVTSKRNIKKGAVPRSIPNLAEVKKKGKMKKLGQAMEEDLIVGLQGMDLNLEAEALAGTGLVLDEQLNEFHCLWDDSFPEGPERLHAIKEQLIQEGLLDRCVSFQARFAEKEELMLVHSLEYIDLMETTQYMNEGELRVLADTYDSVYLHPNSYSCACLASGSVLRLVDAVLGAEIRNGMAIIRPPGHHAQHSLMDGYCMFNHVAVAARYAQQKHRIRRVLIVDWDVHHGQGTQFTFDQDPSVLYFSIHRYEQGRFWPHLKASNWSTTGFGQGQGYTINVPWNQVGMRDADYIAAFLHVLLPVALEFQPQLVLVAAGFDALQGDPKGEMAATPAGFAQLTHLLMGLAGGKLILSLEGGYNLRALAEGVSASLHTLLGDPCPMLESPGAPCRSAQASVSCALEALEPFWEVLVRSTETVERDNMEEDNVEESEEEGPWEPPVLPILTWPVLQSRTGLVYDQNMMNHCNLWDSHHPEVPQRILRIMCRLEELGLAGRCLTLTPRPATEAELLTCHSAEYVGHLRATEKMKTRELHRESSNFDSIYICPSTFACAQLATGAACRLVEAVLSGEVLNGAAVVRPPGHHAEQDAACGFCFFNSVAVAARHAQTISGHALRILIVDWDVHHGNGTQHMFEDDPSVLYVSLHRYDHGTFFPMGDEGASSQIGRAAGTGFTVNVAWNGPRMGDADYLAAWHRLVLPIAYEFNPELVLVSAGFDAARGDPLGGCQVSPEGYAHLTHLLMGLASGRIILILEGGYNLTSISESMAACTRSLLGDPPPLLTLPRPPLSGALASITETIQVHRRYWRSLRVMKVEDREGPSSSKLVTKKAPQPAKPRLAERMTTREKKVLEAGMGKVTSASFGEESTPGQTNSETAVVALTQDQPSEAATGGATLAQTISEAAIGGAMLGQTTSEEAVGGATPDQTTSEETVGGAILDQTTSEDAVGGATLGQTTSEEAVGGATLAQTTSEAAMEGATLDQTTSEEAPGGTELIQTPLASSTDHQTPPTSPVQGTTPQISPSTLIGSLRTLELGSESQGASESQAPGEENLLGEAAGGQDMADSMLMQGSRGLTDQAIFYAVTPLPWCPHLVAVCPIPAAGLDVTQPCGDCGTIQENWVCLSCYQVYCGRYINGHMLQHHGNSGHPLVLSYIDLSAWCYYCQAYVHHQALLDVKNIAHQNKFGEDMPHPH
experimentalDetails: HDAC6 inhibition, full IC50 measurement (Reaction Biology; fluorogenic p53 peptide RHKK(Ac)AMC)
Type: biochemical
runConditions: Conc. 1.00E-05 M, t2
Peptide text beside a SMILES is read from it.
propertyMeasured: HDAC6 activity raw data (signal)

Qu. Supply recorded HDAC6 activity raw data (signal) for NCCCC[C@@H]1NC(=O)[C@@H]2CCCN2C(=O)[C@H](CC(N)=O)NC(=O)[C@H](CCCCCS)NC(=O)CNC(=O)[C@H](Cc2c[nH]c3ccccc23)NC(=O)[C@@H](CCCCN)NC(=O)[C@H](CCC(N)=O)NC1=O [des1.1.0, SHA-Asn-Pro-Lys-Gln-dLys-Trp-Gly] (HELM PEPTIDE1{G.[O=C([C@H](CCCCCS)N[*:1])[*:2]].N.P.K.Q.[dK].W}$PEPTIDE1,PEPTIDE1,1:R1-8:R2$$$V2.0) here.
Ans. -132

Qu. Supply recorded HDAC6 activity raw data (signal) for CC(C)C[C@H]1NC(=O)[C@H](Cc2c[nH]c3ccccc23)NC(=O)[C@H](CCCCCS)NC(=O)[C@@H](Cc2ccc(O)cc2)NC(=O)[C@@H](C(C)C)NC(=O)[C@H](Cc2c[nH]cn2)NC(=O)CNC(=O)CNC(=O)[C@@H](CO)NC1=O [des2.2.0, SHA-Trp-dLeu-dSer-Gly-Gly-His-dVal-dTyr] (HELM PEPTIDE1{G.G.H.[dV].[dY].[O=C([C@H](CCCCCS)N[*:1])[*:2]].W.[dL].[dS]}$PEPTIDE1,PEPTIDE1,1:R1-9:R2$$$V2.0) here.
Ans. 24452

Qu. Supply recorded HDAC6 activity raw data (signal) for CCCC[C@H]1NC(=O)[C@H](Cc2ccccc2)NC(=O)[C@H](CCCCCS)NC(=O)[C@@H](CO)NC(=O)[C@H](CC(=O)O)NC(=O)[C@@H](CO)NC(=O)[C@@H](C)NC(=O)[C@H](CCCCN)NC1=O [des4.3.1.1, SHA-Phe-dNle-Lys-dAla-dSer-Asp-dSer] (HELM PEPTIDE1{D.[dS].[O=C([C@H](CCCCCS)N[*:1])[*:2]].F.[CCCC[C@@H](N[*:1])C(=O)[*:2]].K.[dA].[dS]}$PEPTIDE1,PEPTIDE1,1:R1-8:R2$$$V2.0) here.
Ans. 130414

###

systemUnderTest: HDAC2 (Homo sapiens)
Construct: purchased Reaction Biology Corporation (assay run by the CRO)
experimentalDetails: HDAC2 inhibition, full IC50 measurement (Reaction Biology; fluorogenic p53 peptide RHKK(Ac)AMC)
Assay type: biochemical
runConditions: Conc. 1.11E-06 M, t1
Peptide text beside a SMILES is read from it.
Can you tell me HDAC2 activity raw data (signal) for the items I'm about to list?

Qu. Supply recorded HDAC2 activity raw data (signal) for NCCCC[C@@H]1NC(=O)[C@@H]2C[C@@H](O)CN2C(=O)[C@H](CC(N)=O)NC(=O)[C@H](CCCCCS)NC(=O)CNC(=O)[C@H](Cc2c[nH]c3ccccc23)NC(=O)[C@@H](CCCCN)NC(=O)[C@H](CCC(N)=O)NC1=O [des1.1.2, SHA-Asn-Hpr-Lys-Gln-dLys-Trp-Gly] (HELM PEPTIDE1{G.[O=C([C@H](CCCCCS)N[*:1])[*:2]].N.[Hyp].K.Q.[dK].W}$PEPTIDE1,PEPTIDE1,1:R1-8:R2$$$V2.0) here.
Ans. 502310

Qu. Supply recorded HDAC2 activity raw data (signal) for CSCC[C@H]1NC(=O)[C@@H](CO)NC(=O)[C@H](CC(N)=O)NC(=O)[C@H](CC(=O)O)NC(=O)[C@@H]([C@H](C)O)NC(=O)[C@H](Cc2c[nH]c3ccccc23)NC(=O)[C@H](CCCCCS)NC(=O)[C@H](CCCCN)NC(=O)[C@@H](CC(=O)O)NC1=O [des2.1.1, SHA-Trp-dThr-Asp-Asn-dSer-dMet-dAsp-Lys] (HELM PEPTIDE1{D.N.[dS].[dM].[dD].K.[O=C([C@H](CCCCCS)N[*:1])[*:2]].W.[dT]}$PEPTIDE1,PEPTIDE1,1:R1-9:R2$$$V2.0) here.
Ans. 33890

Qu. Supply recorded HDAC2 activity raw data (signal) for CC(C)C[C@H]1NC(=O)[C@H](Cc2c[nH]c3ccccc23)NC(=O)[C@H](CCCCCS)NC(=O)[C@@H](Cc2ccc(O)cc2)NC(=O)[C@@H](C(C)C)NC(=O)[C@H](Cc2c[nH]cn2)NC(=O)CNC(=O)CNC(=O)[C@@H](CO)NC1=O [des2.2.0, SHA-Trp-dLeu-dSer-Gly-Gly-His-dVal-dTyr] (HELM PEPTIDE1{G.G.H.[dV].[dY].[O=C([C@H](CCCCCS)N[*:1])[*:2]].W.[dL].[dS]}$PEPTIDE1,PEPTIDE1,1:R1-9:R2$$$V2.0) here.
Ans. 808545

Qu. Supply recorded HDAC2 activity raw data (signal) for NCCCC[C@H]1NC(=O)[C@H](CCC(N)=O)NC(=O)[C@H](CCC(=O)O)NC(=O)[C@@H]2CCCN2C(=O)[C@H](CC(N)=O)NC(=O)[C@H](CCCCCS)NC(=O)CNC(=O)[C@H](Cc2c[nH]c3ccccc23)NC1=O [des1.1.1, SHA-Asn-Pro-Glu-Gln-dLys-Trp-Gly] (HELM PEPTIDE1{E.Q.[dK].W.G.[O=C([C@H](CCCCCS)N[*:1])[*:2]].N.P}$PEPTIDE1,PEPTIDE1,1:R1-8:R2$$$V2.0) here.
Ans. 176321

Qu. Supply recorded HDAC2 activity raw data (signal) for CCCC[C@H]1NC(=O)[C@H](Cc2ccccc2)NC(=O)[C@H](CCCCCS)NC(=O)[C@@H](CCCNC(=N)N)NC(=O)[C@H](CC(=O)O)NC(=O)[C@@H](CO)NC(=O)[C@@H](C)NC(=O)[C@H](CCCCN)NC1=O [des4.3.1, SHA-Phe-dNle-Lys-dAla-dSer-Asp-dArg] (HELM PEPTIDE1{D.[dR].[O=C([C@H](CCCCCS)N[*:1])[*:2]].F.[CCCC[C@@H](N[*:1])C(=O)[*:2]].K.[dA].[dS]}$PEPTIDE1,PEPTIDE1,1:R1-8:R2$$$V2.0) here.
Ans. 710265
